Provenance of the data: ChEMBL document CHEMBL4028868

Measured Emax by item
Target: Melanocortin receptor 5 (Homo sapiens)
Sequence (P33032 whole entry, the tested form may be a part): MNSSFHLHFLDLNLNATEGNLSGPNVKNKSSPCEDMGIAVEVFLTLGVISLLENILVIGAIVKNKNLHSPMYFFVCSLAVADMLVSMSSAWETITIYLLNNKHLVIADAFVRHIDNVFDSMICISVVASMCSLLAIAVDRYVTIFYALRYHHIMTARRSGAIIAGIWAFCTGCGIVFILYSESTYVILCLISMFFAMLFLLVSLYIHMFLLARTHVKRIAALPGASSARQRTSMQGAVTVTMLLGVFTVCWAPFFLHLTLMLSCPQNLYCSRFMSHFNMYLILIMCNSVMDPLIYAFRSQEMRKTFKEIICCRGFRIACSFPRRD
Assay: Agonist activity at EYFP-fused human MC5R expressed in HEK293 cells after 16 to 20 hrs by CRE-driven reporter assay relative to alpha-MSH
Assay type: functional, cell-based

- Structure smiles: "CSCC[C@H](NC(=O)[C@@H]1Cc2cn(nn2)[C@@H](CCCNC(=N)N)C(=O)N[C@@H](Cc2cnc[nH]2)C(=O)N[C@H](Cc2ccccc2)C(=O)N[C@@H](CCCNC(=N)N)C(=O)N[C@@H](Cc2c[nH]c3ccccc23)C(=O)N1)C(=O)O"
  Emax: "106%"
- Structure smiles: "CSCC[C@H](NC(=O)[C@@H]1Cc2cn(nn2)C[C@H](NC(=O)[C@@H](N)CCCNC(=N)N)C(=O)N[C@@H](Cc2cnc[nH]2)C(=O)N[C@H](Cc2ccccc2)C(=O)N[C@@H](CCCNC(=N)N)C(=O)N[C@@H](Cc2c[nH]c3ccccc23)C(=O)N1)C(=O)O"
  Emax: "85%"
- Structure smiles: "CSCC[C@H](NC(=O)[C@@H]1Cc2cn(nn2)C[C@H](NC(=O)[C@H](C)N)C(=O)N[C@@H](Cc2cnc[nH]2)C(=O)N[C@H](Cc2ccccc2)C(=O)N[C@@H](CCCNC(=N)N)C(=O)N[C@@H](Cc2c[nH]c3ccccc23)C(=O)N1)C(=O)O"
  Emax: "123%"
- Structure smiles: "C[C@H](NC(=O)[C@@H]1Cc2cn(nn2)C[C@H](NC(=O)[C@@H](N)CCCCN)C(=O)N[C@@H](Cc2cnc[nH]2)C(=O)N[C@H](Cc2ccccc2)C(=O)N[C@@H](CCCNC(=N)N)C(=O)N[C@@H](Cc2c[nH]c3ccccc23)C(=O)N1)C(=O)O"
  Emax: "126%"
- Structure smiles: "CSCC[C@H](NC(=O)[C@@H]1Cc2cn(nn2)C[C@H](NC(=O)[C@@H](N)CCCCN)C(=O)N[C@@H](C)C(=O)N[C@H](Cc2ccccc2)C(=O)N[C@@H](CCCNC(=N)N)C(=O)N[C@@H](Cc2c[nH]c3ccccc23)C(=O)N1)C(=O)O"
  Emax: "130%"
- Structure smiles: "CSCC[C@H](NC(=O)[C@@H]1Cc2cn(nn2)C[C@H](NC(=O)[C@@H](N)CCCCN)C(=O)N[C@@H](Cc2cnc[nH]2)C(=O)N[C@H](Cc2ccccc2)C(=O)N[C@@H](CCCNC(=N)N)C(=O)N[C@@H](Cc2c[nH]c3ccccc23)C(=O)N1)C(=O)O"
  Emax: "120%"

====

Known pEC50 of a selection of molecules
Molecular target: Melanocortin receptor 4 (Homo sapiens)
Sequence (P32245 whole entry, the tested form may be a part): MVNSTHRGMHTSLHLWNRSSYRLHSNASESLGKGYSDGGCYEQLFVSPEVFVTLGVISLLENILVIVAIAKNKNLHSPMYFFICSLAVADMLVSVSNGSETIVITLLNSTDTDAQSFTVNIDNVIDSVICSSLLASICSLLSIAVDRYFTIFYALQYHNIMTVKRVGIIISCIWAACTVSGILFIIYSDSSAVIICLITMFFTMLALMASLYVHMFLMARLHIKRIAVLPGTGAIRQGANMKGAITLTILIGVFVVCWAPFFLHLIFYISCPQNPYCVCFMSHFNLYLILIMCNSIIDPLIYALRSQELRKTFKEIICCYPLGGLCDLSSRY
Test: Agonist activity at EYFP-fused human MC4R expressed in HEK293 cells after 16 to 20 hrs by CRE-driven reporter assay
Type: functional, cell-based
pEC50: −log10 of the molar value.

- Structure smiles: "CSCC[C@H](NC(=O)[C@@H]1Cc2cn(nn2)C[C@H](NC(=O)[C@@H](N)CCCCN)C(=O)N[C@@H](Cc2cnc[nH]2)C(=O)N[C@H](Cc2ccccc2)C(=O)N[C@@H](CCCNC(=N)N)C(=O)N[C@@H](Cc2csc3ccccc23)C(=O)N1)C(=O)O"
  pEC50: 8.12
- Structure smiles: "C[C@H](NC(=O)[C@@H]1Cc2cn(nn2)C[C@H](NC(=O)[C@@H](N)CCCCN)C(=O)N[C@@H](Cc2cnc[nH]2)C(=O)N[C@H](Cc2ccccc2)C(=O)N[C@@H](CCCNC(=N)N)C(=O)N[C@@H](Cc2c[nH]c3ccccc23)C(=O)N1)C(=O)O"
  pEC50: 8.64
- Structure smiles: "CSCC[C@H](NC(=O)[C@@H]1Cc2cn(nn2)C[C@H](NC(=O)[C@@H](N)CCCCN)C(=O)N[C@@H](Cc2cnc[nH]2)C(=O)N[C@H](Cc2ccccc2)C(=O)N[C@@H](C)C(=O)N[C@@H](Cc2c[nH]c3ccccc23)C(=O)N1)C(=O)O"
  pEC50: 6.59
- Structure smiles: "CSCC[C@H](NC(=O)[C@@H]1Cc2cn(nn2)C[C@H](NC(=O)[C@@H](N)CCCCN)C(=O)N[C@@H](Cc2cnc[nH]2)C(=O)N[C@H](Cc2ccccc2)C(=O)N[C@@H](CCCCN)C(=O)N[C@@H](Cc2c[nH]c3ccccc23)C(=O)N1)C(=O)O"
  pEC50: 7.90
- Structure smiles: "CSCC[C@H](NC(=O)[C@@H]1Cc2cn(nn2)C[C@H](NC(=O)[C@@H](N)CCCCN)C(=O)N[C@@H](C)C(=O)N[C@H](Cc2ccccc2)C(=O)N[C@@H](CCCNC(=N)N)C(=O)N[C@@H](Cc2c[nH]c3ccccc23)C(=O)N1)C(=O)O"
  pEC50: 8.55
- Structure smiles: "CSCC[C@H](NC(=O)[C@@H]1Cc2cn(nn2)C[C@H](NC(=O)[C@@H](N)CCCCN)C(=O)N[C@@H](Cc2cnc[nH]2)C(=O)N[C@@H](Cc2ccccc2)C(=O)N[C@@H](CCCNC(=N)N)C(=O)N[C@@H](Cc2c[nH]c3ccccc23)C(=O)N1)C(=O)O"
  pEC50: 6.17
- Structure smiles: "CSCC[C@H](NC(=O)[C@@H]1Cc2cn(nn2)C[C@H](NC(=O)[C@@H](N)CCCNC(=N)N)C(=O)N[C@@H](Cc2cnc[nH]2)C(=O)N[C@H](Cc2ccccc2)C(=O)N[C@@H](CCCNC(=N)N)C(=O)N[C@@H](Cc2c[nH]c3ccccc23)C(=O)N1)C(=O)O"
  pEC50: 7.94
- Structure smiles: "CSCC[C@H](NC(=O)[C@@H]1Cc2cn(nn2)C[C@H](NC(=O)[C@H](C)N)C(=O)N[C@@H](Cc2cnc[nH]2)C(=O)N[C@H](Cc2ccccc2)C(=O)N[C@@H](CCCNC(=N)N)C(=O)N[C@@H](Cc2c[nH]c3ccccc23)C(=O)N1)C(=O)O"
  pEC50: 8.85
